# study.target: T1, recombinant human CLL-1 extracellular domain (ECD, amino acids 65-265) fused to an N-terminal Flag (human, UniProt Q5QGZ9 65-265)
# T1 construct: The construct and the K244Q SNP are stated for the immunogen; they are not written as a piece; also called huCLL-1-Flag; huCLL-1
# T1 chain: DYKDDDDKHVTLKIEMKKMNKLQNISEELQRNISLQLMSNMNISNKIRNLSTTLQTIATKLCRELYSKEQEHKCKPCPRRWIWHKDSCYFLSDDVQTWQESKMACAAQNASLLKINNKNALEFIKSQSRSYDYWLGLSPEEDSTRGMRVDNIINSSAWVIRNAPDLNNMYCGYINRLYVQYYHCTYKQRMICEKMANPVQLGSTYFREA
# method.notes: SPR (Biacore), chimeric IgG captured by anti-human IgG, CLL-1 as analyte
readout.kind: pKd
Friendly reminder that pKd comes from taking -log10 of the concentration in mol/L.

Consider the reported pKd for these binders:
binder	pKd
ch6E7 (antibody, V domains shown, chimeric version of m6E7, human IgG; also called chimeric 6E7; Chimeric 6E7) VH: QVQLQQSGPELVKPGASVKISCKASGYSFTDYYMHWVKQSHIKSLEWIGRINPYNGAAFYSQNFKDKASLTVDKSSSTAYMELHSLTSEDSAVYYCAIERGADLEGYAMDYWGQGTSVTVSS VL: DIVLTQSPSSLIVSLGQRATISCRASQSVSTSSYNYMHWYQQKPGQPPKLLLKYASNLESGVPARFSGSGSGTDFTLNIHPVEEEDTATYYCQHSWEIPLTFGAGTKLEIK	9.05
ch28H12 (antibody, V domains shown, chimeric version of m28H12, human IgG; also called chimeric 28H12) VH: QVQLQQSGAELVKPGASVKLSCTASGFNIKDTYMHWVKQRPEQGLEWIGRIDPANGDTDYDPKFQGKATVTADTSSNTAYLQLSSLTSEDTAVYYCTISGPPYYVMDYWGQGTSVTVSS VL: DIQMTQSPASLAVSLGQRATISCRASQSVSSSSYSYMHWYQQKPGQPPKLLIKYASNLESGVPARFSGRGSGTDFTLNIHPVEEEDTATYYCQHSWEIPYTFGGGTRLEIK	7.74

Exercise: For ch20B1 (antibody, V domains shown, chimeric version of m20B1, human IgG; also called chimeric 20B1; 2061 [sic]) VH: EVQLQQSGPELVKPGALVKISCKASGYTFTSYDINWLKQRPGQGLEWIGWIYPGDGTTEYNERFKGKATLTADKSSSTAYLQLSSLTSENSAVYFCARSYDYDYAMDYWGQGTSVTVSS VL: DIVLTQSPAIMSASPGEKVTMTCSASSSISYMYWYQQKPGTSPKRWIYDTSKLASGVPARFSGSGSGTSYSLTISSMEAEDAATYYCHQRSSWTFGGGTKLEIK , what is its reported pKd?
Solution: 8.35
